experiment: Pharmacokinetics in female BALB/c nude mice bearing A375 xenografts, 1 day dosing (PK and PD study): plasma, tumor and brain concentrations, AUC; type: in vivo; conditions: mouse, tumor, po, 6 mg/kg, 6 mg/kg p.o. QD × 1 day; 24 h; read-out: Mean Concentration in Tumor ± SEM
Measured Endpoint: concentration at 24 h (ng/g)

• CCN(C)S(=O)(=O)Nc1ccc(F)c(Oc2ccc3ncn([C@H]4COC5(CCN(C6CC7(C6)CN(c6cc8c(cc6F)c(N6CCC(=O)NC6=O)nn8C)C7)CC5)C4)c(=O)c3c2)c1C#N [Compound 26] = 89.1

###

test: Pharmacokinetics after 21 days dosing in the efficacy study (plasma, tumor and brain concentrations; plasma AUC at steady state), Example 14; format: in vivo, female BALB/c nude mice; conditions: mouse, tumor, po; 1.5 mg/kg p.o. BID x 21 days; 24 h; mean ± SEM; read-out: Concentration in Tumor
Measured Endpoint: concentration at 24 h (ng/g)

* CCN(C)S(=O)(=O)Nc1ccc(F)c(Oc2ccc3ncn(C4CC5(CCN(C6CC7(C6)CN(c6cc8c(cc6F)c(N6CCC(=O)NC6=O)nn8C)C7)CC5)C4)c(=O)c3c2)c1C#N (centres unmarked) [Compound 141] | 6.7
* CCN(C)S(=O)(=O)Nc1ccc(F)c(Oc2ccc3ncn([C@H]4COC5(CCN(C6CC7(C6)CN(c6cc8c(cc6F)c(N6CCC(=O)NC6=O)nn8C)C7)CC5)C4)c(=O)c3c2)c1C#N [Compound 26] | 11.8

###

test: Pharmacokinetics in female BALB/c nude mice bearing A375 xenografts, 1 day dosing (PK and PD study): plasma, tumor and brain concentrations, AUC; assay type: in vivo; details: mouse, brain, po, 3 mg/kg, 3 mg/kg p.o. QD × 1 day; 1 h; read-out: Mean Concentration in Brain ± SEM
Measured Endpoint: concentration at 1 h (ng/g)

- CCN(C)S(=O)(=O)Nc1ccc(F)c(Oc2ccc3ncn(C4CC5(CCN(C6CC7(C6)CN(c6cc8c(cc6F)c(N6CCC(=O)NC6=O)nn8C)C7)CC5)C4)c(=O)c3c2)c1C#N (stereo not shown): 70.5

###

experiment: Pharmacokinetics after 21 days dosing in the efficacy study (plasma, tumor and brain concentrations; plasma AUC at steady state), Example 14; type: in vivo, female BALB/c nude mice; conditions: mouse, plasma, po; 0.75 mg/kg p.o. BID x 21 days; 0.25 h; mean ± SEM
Measured Endpoint: concentration at 0.25 h (ng/mL)

- CCN(C)S(=O)(=O)Nc1ccc(F)c(Oc2ccc3ncn(C4CC5(CCN(C6CC7(C6)CN(c6cc8c(cc6F)c(N6CCC(=O)NC6=O)nn8C)C7)CC5)C4)c(=O)c3c2)c1C#N (stereo not shown): 369

###

assay: Pharmacokinetics after 21 days dosing in the efficacy study (plasma, tumor and brain concentrations; plasma AUC at steady state), Example 14; type: in vivo, female BALB/c nude mice; details: mouse, plasma, po; 2 mg/kg p.o. TID × 21 days; read-out: Plasma AUC at steady state (Day 21), Average
Measured Endpoint: AUC (ng·h/mL)

- CCN(C)S(=O)(=O)Nc1ccc(F)c(Oc2ccc3ncn([C@H]4COC5(CCN(C6CC7(C6)CN(c6cc8c(cc6F)c(N6CCC(=O)NC6=O)nn8C)C7)CC5)C4)c(=O)c3c2)c1C#N [Compound 26]: 88300

###

assay: Pharmacokinetics in female BALB/c nude mice bearing A375 xenografts, 1 day dosing (PK and PD study): plasma, tumor and brain concentrations, AUC; type: in vivo; conditions: mouse, tumor, po, 3 mg/kg, 3 mg/kg p.o. BID × 1 day; post 2nd dose; 0.25 h; read-out: Mean Concentration in Tumor ± SEM
Measured Endpoint: concentration at 0.25 h (ng/g)

- CCN(C)S(=O)(=O)Nc1ccc(F)c(Oc2ccc3ncn([C@H]4COC5(CCN(C6CC7(C6)CN(c6cc8c(cc6F)c(N6CCC(=O)NC6=O)nn8C)C7)CC5)C4)c(=O)c3c2)c1C#N: 197

###

molecular target: BRAF V600E (Homo sapiens, UniProt P15056+Q96SW2, V600E); construct: knock-in of the HiBiT tag to the endogenous BRAF V600E locus; host or cells: A375.10 (A375 clonal line, CRISPR HiBiT knock-in at the endogenous BRAF V600E locus); assay: BRAF V600E HiBiT Degradation Assay; format: cell-based; conditions: A375.10 cells, BRAF V600E, 2 hours; read-out: HiBiT-Degradation A375.10 BRAF 2 hours DC50
Sequence (P15056 whole entry V600E): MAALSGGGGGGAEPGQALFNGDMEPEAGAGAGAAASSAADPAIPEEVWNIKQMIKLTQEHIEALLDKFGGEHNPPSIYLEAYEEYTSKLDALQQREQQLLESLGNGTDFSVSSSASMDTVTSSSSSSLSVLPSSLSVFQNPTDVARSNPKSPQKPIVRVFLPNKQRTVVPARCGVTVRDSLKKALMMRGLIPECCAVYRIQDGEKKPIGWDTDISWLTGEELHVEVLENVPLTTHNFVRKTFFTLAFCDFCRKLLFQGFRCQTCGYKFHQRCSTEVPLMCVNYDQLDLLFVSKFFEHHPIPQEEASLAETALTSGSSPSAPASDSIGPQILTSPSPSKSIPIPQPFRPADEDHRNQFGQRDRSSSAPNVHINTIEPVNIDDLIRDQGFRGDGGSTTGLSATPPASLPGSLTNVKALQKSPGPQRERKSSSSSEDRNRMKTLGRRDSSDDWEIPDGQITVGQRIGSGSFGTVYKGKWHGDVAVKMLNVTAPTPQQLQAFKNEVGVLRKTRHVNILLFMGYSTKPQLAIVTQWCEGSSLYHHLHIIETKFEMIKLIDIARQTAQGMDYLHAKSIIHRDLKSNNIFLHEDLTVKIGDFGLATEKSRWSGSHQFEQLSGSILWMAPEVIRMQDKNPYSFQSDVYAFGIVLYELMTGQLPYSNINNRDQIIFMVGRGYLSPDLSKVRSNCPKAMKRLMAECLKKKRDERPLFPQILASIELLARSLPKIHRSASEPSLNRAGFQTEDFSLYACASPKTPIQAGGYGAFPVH
Sequence (Q96SW2 whole entry): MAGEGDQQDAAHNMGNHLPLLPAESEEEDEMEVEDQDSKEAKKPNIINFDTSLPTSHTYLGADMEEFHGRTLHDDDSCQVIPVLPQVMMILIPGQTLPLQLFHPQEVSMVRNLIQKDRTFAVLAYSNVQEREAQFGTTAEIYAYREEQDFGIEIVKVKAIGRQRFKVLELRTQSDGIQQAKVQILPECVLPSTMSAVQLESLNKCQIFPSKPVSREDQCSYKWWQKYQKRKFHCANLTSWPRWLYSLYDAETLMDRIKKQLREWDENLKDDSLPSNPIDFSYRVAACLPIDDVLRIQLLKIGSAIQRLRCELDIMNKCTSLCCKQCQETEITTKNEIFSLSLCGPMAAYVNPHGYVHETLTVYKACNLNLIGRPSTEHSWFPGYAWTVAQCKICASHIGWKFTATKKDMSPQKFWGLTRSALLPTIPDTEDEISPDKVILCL
Sequence (Q16531 whole entry partner): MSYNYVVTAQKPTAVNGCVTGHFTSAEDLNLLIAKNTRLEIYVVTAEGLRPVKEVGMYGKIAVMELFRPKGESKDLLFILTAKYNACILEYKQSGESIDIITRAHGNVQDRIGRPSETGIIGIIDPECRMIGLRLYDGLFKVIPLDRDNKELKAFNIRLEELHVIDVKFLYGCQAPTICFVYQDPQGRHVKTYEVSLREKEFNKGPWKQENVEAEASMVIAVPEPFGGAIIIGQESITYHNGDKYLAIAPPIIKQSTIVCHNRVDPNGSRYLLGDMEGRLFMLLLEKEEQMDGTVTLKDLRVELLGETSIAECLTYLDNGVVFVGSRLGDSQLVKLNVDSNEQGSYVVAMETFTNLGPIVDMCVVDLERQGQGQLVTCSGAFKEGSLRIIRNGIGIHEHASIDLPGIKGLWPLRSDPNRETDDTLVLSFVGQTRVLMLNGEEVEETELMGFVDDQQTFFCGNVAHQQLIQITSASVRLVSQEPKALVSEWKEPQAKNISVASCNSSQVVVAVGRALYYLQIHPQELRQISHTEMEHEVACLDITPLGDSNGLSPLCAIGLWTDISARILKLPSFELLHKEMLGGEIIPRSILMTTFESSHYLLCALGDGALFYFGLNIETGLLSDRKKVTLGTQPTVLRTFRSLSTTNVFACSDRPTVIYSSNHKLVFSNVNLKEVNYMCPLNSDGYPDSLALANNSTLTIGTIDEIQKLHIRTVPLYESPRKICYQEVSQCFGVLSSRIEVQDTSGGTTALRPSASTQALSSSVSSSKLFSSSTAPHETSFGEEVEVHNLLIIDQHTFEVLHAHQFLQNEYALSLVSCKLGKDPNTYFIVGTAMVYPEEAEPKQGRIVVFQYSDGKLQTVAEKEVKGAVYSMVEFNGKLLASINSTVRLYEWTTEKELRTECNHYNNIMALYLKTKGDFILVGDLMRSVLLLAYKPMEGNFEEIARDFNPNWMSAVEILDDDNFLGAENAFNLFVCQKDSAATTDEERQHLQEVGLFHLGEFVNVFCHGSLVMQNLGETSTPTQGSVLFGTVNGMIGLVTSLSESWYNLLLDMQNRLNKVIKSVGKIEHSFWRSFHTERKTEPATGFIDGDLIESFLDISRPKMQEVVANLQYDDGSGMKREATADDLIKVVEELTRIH
Measured Endpoint: DC50

* CCN(C)S(=O)(=O)Nc1ccc(F)c(Oc2ccc3ncn([C@@H]4CCC5(CCN(C6CCC(c7cc8c(cc7F)c(N7CCC(=O)NC7=O)nn8C)CC6)CC5)C4)c(=O)c3c2)c1C#N (single isomer, unassigned) [Compound 31] | > 10 µM
* CN(CCO)S(=O)(=O)Nc1ccc(F)c(Oc2ccc3ncn(C4CC5(CCN(C6CCC(c7cc8c(cc7F)c(N7CCC(=O)NC7=O)nn8C)CC6F)CC5)C4)c(=O)c3c2)c1C#N (single isomer, unassigned) [Compound 145] | < 1 µM
* CN(CCO)S(=O)(=O)Nc1ccc(F)c(Oc2ccc3ncc(C4CC5(C4)CN(C4CCC(c6cc7c(cc6F)c(N6CCC(=O)NC6=O)nn7C)CC4)C5)nc3c2)c1C#N (single isomer, unassigned) [Compound 321] | 1 to 10 µM
* CCN(C)S(=O)(=O)Nc1ccc(F)c(Oc2ccc3ncc(OCC4CCN(C5CCC(c6cc7c(cc6F)c(N6CCC(=O)NC6=O)nn7C)CC5)CC4)nc3c2)c1C#N (single isomer, unassigned) [Compound 118] | < 1 µM
* CCN(C)S(=O)(=O)Nc1ccc(F)c(Oc2ccc3ncn([C@H]4COC5(CCN(C6CCC(c7ccc(NC8CCC(=O)NC8=O)cc7F)CC6)CC5)C4)c(=O)c3c2F)c1C#N (single isomer, unassigned) [Compound 50] | < 1 µM
* CCN(C)S(=O)(=O)Nc1ccc(F)c(Oc2ccc3ncn(C4CCC(N5CC6(CCN(c7cc8c(cc7F)c(N7CCC(=O)NC7=O)nn8C)CC6)C5)CC4)c(=O)c3c2)c1C#N (single isomer, unassigned) [Compound 221] | < 1 µM
* CCN(C)S(=O)(=O)Nc1ccc(F)c(Oc2ccc3ncc([C@@H]4COC5(CCN(C6CCC(c7ccc(NC8CCC(=O)NC8=O)cc7F)CC6)CC5)C4)nc3c2)c1C#N (single isomer, unassigned) [Compound 60] | < 1 µM
* CCN(C)S(=O)(=O)Nc1ccc(F)c(Oc2ccc3ncn(C4CC5(CCN(C6CCC(c7cc8c(cc7F)c(N7CCC(=O)NC7=O)nn8C)CC6)CC5)C4)c(=O)c3c2)c1F (single isomer, unassigned) [Compound 178] | < 1 µM
* Cn1nc(N2CCC(=O)NC2=O)c2cc(F)c(C3CCC(N4CCC5(CC4)CC(n4cnc6ccc(Oc7c(F)ccc(NS(=O)(=O)C8CCCC8)c7C#N)cc6c4=O)C5)CC3)cc21 (single isomer, unassigned) [Compound 94] | < 1 µM

###

Experiment: Pharmacokinetics in female BALB/c nude mice bearing A375 xenografts, 1 day dosing (PK and PD study): plasma, tumor and brain concentrations, AUC
Type: in vivo
Settings: mouse, plasma, po, 6 mg/kg, 6 mg/kg p.o. QD × 1 day; 0.5 h; read-out: Mean Concentration in Plasma ± SEM
From the text: The concentrations of Dabrafenib, Compound 26 and Compound 141 in the treatment of female BALB/c nude mice bearing A375 xenografts are shown in Table 62-Table 72 and FIG. 52-FIG. 73.
Measured Endpoint: concentration at 0.5 h (ng/mL)

- CCN(C)S(=O)(=O)Nc1ccc(F)c(Oc2ccc3ncn([C@H]4COC5(CCN(C6CC7(C6)CN(c6cc8c(cc6F)c(N6CCC(=O)NC6=O)nn8C)C7)CC5)C4)c(=O)c3c2)c1C#N [Compound 26]: 7680

###

target: BRAF V600E (Homo sapiens, UniProt P15056+Q96SW2, V600E); construct: knock-in of the HiBiT tag to the endogenous BRAF V600E locus; host or cells: A375.10 (A375 clonal line, CRISPR HiBiT knock-in at the endogenous BRAF V600E locus); assay: BRAF V600E HiBiT Degradation Assay; type: cell-based; conditions: A375.10 cells, BRAF V600E, 2 hours; residual protein remaining; read-out: HiBiT-Degradation A375.10 BRAF 2 hours Emax
Measured Endpoint: Emax

* CCN(C)S(=O)(=O)Nc1ccc(F)c(Oc2ccc3ncc(C4CC5(CCN(C6CCN(c7cc8c(cc7F)c(N7CCC(=O)NC7=O)nn8C)CC6)CC5)C4)nc3c2)c1C#N [Compound 256] | < 50%
* CN(CCO)S(=O)(=O)Nc1ccc(F)c(Oc2ccc3ncn([C@H]4COC5(CCN([C@H]6C[C@@H](c7cc8c(cc7F)c(N7CCC(=O)NC7=O)nn8C)C6)CC5)C4)c(=O)c3c2)c1C#N [Compound 165] | 50 to 90%
* CCN(C)S(=O)(=O)Nc1ccc(F)c(Oc2ccc3ncn([C@@H]4CO[C@@]5(CCN(C6CCC(c7cc8c(cc7F)c(N7CCC(=O)NC7=O)nn8C)CC6)C5)C4)c(=O)c3c2)c1C#N (single isomer, unassigned) [Compound 286] | < 50%
* CCN(C)S(=O)(=O)Nc1ccc(F)c(Oc2ccc3ncn(C4CC5(CCN(C6CCC(c7ccc(NC8CCC(=O)NC8=O)cc7F)CC6)CC5)C4)c(=O)c3c2)c1F (single isomer, unassigned) [Compound 166] | 50 to 90%
* CCN(C)S(=O)(=O)Nc1ccc(F)c(Oc2ccc3ncn([C@H]4COC5(CCN(C6CC7(C6)CN(c6cc8c(cc6F)c(N6CCC(=O)NC6=O)nn8C)C7)CC5)C4)c(=O)c3c2)c1F [Compound 186] | 50 to 90%
